Target: T1, mANGPTL3(17-455)-His (Mus musculus, UniProt Q9R182 17-455)
T1 construct: Bought protein (R&D Systems); also called full-length mature ANGPTL3 from Mus musculus with a C-terminal decahistidine tag
T1 sequence: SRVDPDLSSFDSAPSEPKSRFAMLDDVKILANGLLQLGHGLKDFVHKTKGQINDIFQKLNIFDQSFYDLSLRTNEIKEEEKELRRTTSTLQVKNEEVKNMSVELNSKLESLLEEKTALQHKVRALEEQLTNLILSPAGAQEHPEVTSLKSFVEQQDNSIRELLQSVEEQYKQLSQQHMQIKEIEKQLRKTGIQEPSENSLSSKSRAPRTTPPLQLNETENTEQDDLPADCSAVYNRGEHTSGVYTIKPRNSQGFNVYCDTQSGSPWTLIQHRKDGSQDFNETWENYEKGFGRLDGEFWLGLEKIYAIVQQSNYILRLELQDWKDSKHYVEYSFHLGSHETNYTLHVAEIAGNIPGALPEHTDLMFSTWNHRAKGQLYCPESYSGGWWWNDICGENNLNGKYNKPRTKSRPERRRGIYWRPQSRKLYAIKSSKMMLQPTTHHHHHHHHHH
Assay: SPR Biacore, antigen captured, 37C, pH 7.4, HBS-EP
recordedEndpoint: t1/2 (min)
A number alone suffices; assume min.

Please review the following examples before continuing.
binder: H4H1250P (antibody, IgG4, V domains shown) VH: QVQLVESGGGVVQPGRSLRLSCAASGFTFSSYGMHWVRQAPGKGLEWVAVISNDGSNKYYVDSVKGRFTMGRDNSKNTLYLQMNSLRVEDTAVYYCAKGAGTLYYYYYGMDVWGQGTTVTVSS VL: DIQMTQSPSTLSASVGNRVTITCRASQSISSWLAWYQQKPGKAPKFLIYKASSLESGVPSRFSGSGSGTEFTLTITSLQPDDFATYYCQQYNIYSWTFGQGTKVEIK
observed: 7

binder: H1M896N (antibody, V domains shown) VH: EVQLLESGGGLVQPGGSLRLSCAASGFTFSTYAMSWVRQAPGKGLEGVSGISGTGYRTYYADSVKGRFTISRDNSKNSLYLQMNSLRAEDTAVYYCAKDRGLLWFGELTYWGQGTLVTVSS VL: DIQMTQSPSTLSASVGDRVTITCRASQSINNWLAWYQQKPGKAPNLLIYKASSLESGVPSRFSGSGSGTEFTLTISSLQPDDFATYYCQQYNDYWTFGQGTKVEIK
observed: 5

binder: H4H1279P (antibody, IgG4, V domains shown) VH: QVQLVESGGGLVKPGGSLRLSCAASGFTFSDYYMSWIRQAPGKGLEWVSYIGSSGVNMYYADSVKGRFTISRDNAKNSLYLEMNSLRAEDTAVYYCARDSSQLGFDYWGQGTLVTVSS VL: DIQMTQSPSSLSASVGDRVTITCRTSQNIINFLNWYQQKPGKAPKLLIYTTSTLQSGVPSRFSGSGSGTDFTLSINSLQPEDFATYFCQQTYSNPLTFGGGTKLEIKR
observed: 32

Please find the next binder below.
Which t1/2 is reported for this binder? H4H1292P (antibody, IgG4, V domains shown) VH: QVQLVESGGGLVKPGGSLRLSCAASGFTFSDYYMSWIRQAPGKGLEWVSYISSSGSTIYYADSVKGRFTISRDNAKNSLYLQMNSLRAEDTAVYYCARDSSQLGFDYWGQGTLVTVSS VL: DIQMTQSPSSLSASVGDRVTITCRASQSIISFLNWYQQKPGKAPKLLIYTASSLQSGVPSRFSGSGSGTDFTLTISSLQPEDFATYYCQQTYSNPLTFGGGTKVEIKR
8
